- target_of_assay: human mAChR M1 (Homo sapiens)
- Construct: host or cells: CHO-K1 cells (ATCC), stably transfected using Lipofectamine2000
- Sequence (P11229 1-460): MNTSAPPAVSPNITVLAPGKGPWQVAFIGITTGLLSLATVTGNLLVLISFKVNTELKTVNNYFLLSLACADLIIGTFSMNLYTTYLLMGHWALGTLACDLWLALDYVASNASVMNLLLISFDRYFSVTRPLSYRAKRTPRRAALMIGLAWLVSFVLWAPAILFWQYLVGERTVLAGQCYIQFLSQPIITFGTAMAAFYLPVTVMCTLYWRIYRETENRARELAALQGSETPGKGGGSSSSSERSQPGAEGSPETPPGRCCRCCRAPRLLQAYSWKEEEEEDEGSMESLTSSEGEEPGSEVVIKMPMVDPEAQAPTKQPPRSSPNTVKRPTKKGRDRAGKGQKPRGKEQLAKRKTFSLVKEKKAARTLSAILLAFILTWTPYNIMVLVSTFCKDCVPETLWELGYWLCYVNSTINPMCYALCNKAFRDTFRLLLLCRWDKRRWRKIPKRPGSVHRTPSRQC
- measurement_protocol: mAChR M1 cell-based functional assay (calcium mobilization), agonist activity upon compound addition
- test_settings: CHO-K1 cells expressing hM1; relative to the maximum for acetylcholine
assay_metric: Emax

1) Cn1cc(-c2ccc(Cn3cc(C(=O)NCC(C)(C)O)c4nccnc4c3=O)c(F)c2)cn1 | < 5%
2) Cn1cc(-c2ccc(Cn3cc(C(=O)N[C@H]4CCCCC[C@@H]4O)c4ncccc4c3=O)c(F)c2)cn1 | 16%
3) Cn1cc2c(-c3cc(F)c(Cn4cc(C(=O)N[C@H]5CCOC[C@@H]5O)c5ncccc5c4=O)c(F)c3)cccc2n1 | 31%
4) Cc1cccc(-c2ccc(Cn3cc(C(=O)N[C@H]4CCOC[C@@H]4O)c4ncccc4c3=O)c(F)c2)c1 | < 5%
5) Cc1cc(-c2cc(F)c(Cn3cc(C(=O)N[C@H]4CCC[C@@H]4O)c4ncccc4c3=O)c(F)c2)ccn1 | < 5%
6) Cc1cnn(C)c1-c1ccc(Cn2cc(C(=O)N[C@H]3CCOC[C@@H]3O)c3nccn3c2=O)c(F)c1 | < 5%
7) Cn1cc2c(-c3cc(F)c(Cn4cc(C(=O)N[C@H]5CCOC[C@@H]5O)c5ncn(C)c5c4=O)c(F)c3)cccc2n1 | < 5%
8) Cn1ccc(-c2ccc(Cn3cc(C(=O)N[C@@H]4CC[C@H]4O)c4nccn4c3=O)c(F)c2)n1 | < 5%
9) Cn1cc2c(-c3cc(F)c(Cn4cc(C(=O)N[C@H]5CCOC[C@@H]5O)c5occc5c4=O)c(F)c3)cccc2n1 | 11%
10) Cn1cc2c(-c3cc(F)c(Cn4cc(C(=O)N[C@H]5CCOC[C@@H]5O)c5nccn5c4=O)c(F)c3)cccc2n1 | 24%
11) O=C(N[C@H]1CCCC[C@@H]1O)c1cn(Cc2ccc(-n3cccn3)cc2)c(=O)n2ccnc12 | 55%
12) Cc1cc(-c2ccc(Cn3cc(C(=O)N[C@H]4CCC[C@@H]4O)c4ncccc4c3=O)c(F)c2)ccn1 | < 5%
13) Cn1cc(-c2ccc(Cn3cc(C(=O)N[C@H]4CCOC[C@@H]4O)c4nccn4c3=O)cn2)cn1 | 41%
14) Cn1cc2c(-c3cc(F)c(Cn4cc(C(=O)NCC5CCCO5)c5occc5c4=O)c(F)c3)cccc2n1 (stereo not shown) | < 5%
15) Cc1cn2c(=O)n(Cc3ccc(-n4cccn4)cc3)cc(C(=O)N[C@H]3CCCC[C@@H]3O)c2n1 | < 5%
16) Cn1cc(-c2ccc(Cn3cc(C(=O)N[C@H]4CCCC[C@@H]4O)c4ncccc4c3=O)c(F)c2)cn1 | 12%
17) Cn1ccc(-c2ccc(Cn3cc(C(=O)N[C@H]4CCCCC[C@@H]4O)c4nccnc4c3=O)c(F)c2)n1 | 6%
18) Cn1cc2c(-c3cc(F)c(Cn4cc(C(=O)NC5(CO)CCOC5)c5nccnc5c4=O)c(F)c3)cccc2n1 (stereo not shown) | < 5%
19) Cn1cc(-c2ccc(Cn3cc(C(=O)N[C@H]4CCCCC[C@@H]4O)c4nccnc4c3=O)c(F)c2)cn1 | 5%
20) Cn1ccc(-c2ccc(Cn3cc(C(=O)N[C@H]4CCCCC[C@@H]4O)c4occc4c3=O)c(F)c2)n1 | < 5%
21) Cn1nccc1-c1ccc(Cn2cc(C(=O)N[C@H]3CCCC[C@@H]3O)c3nccn3c2=O)c(F)c1 | < 5%
22) Cn1cc2c(-c3cc(F)c(Cn4cc(C(=O)N[C@H]5CC[C@@H]5O)c5nccn5c4=O)c(F)c3)cccc2n1 | 19%
23) O=C(N[C@H]1CCCCC[C@@H]1O)c1cn(Cc2ccc(-n3cccn3)cc2)c(=O)n2ccnc12 | < 5%
24) Cn1cc(-c2ccc(Cn3cc(C(=O)N[C@H]4CCCC[C@@H]4O)c4nccn4c3=O)cn2)cn1 | 45%
25) CC[C@H](C)[C@@H](CO)NC(=O)c1cn(Cc2c(F)cc(-c3cccc4nn(C)cc34)cc2F)c(=O)c2nccnc12 | < 5%
26) CC1(C)COCCC1NC(=O)c1cn(Cc2ccc(-n3cccn3)cc2)c(=O)c2ccoc12 (stereo not shown) [Compound D1] | < 5%
27) Cn1cnc2c(C(=O)N[C@H]3CCCC[C@@H]3O)cn(Cc3ccc(-n4cccn4)cc3)c(=O)c21 | < 5%
28) CC[C@H](C)[C@@H](CO)NC(=O)c1cn(Cc2ccc(-c3cnn(C)c3)cc2F)c(=O)c2nccnc12 | < 5%
